EXPERIMENTAL_PROTOCOL: compounds raising algal triacylglycerol storage – qHTS, Chlamydomonas reinhardtii, primary screen (AID 1159537);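 note: hits raise Nile Red signal meaning more stored TAG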
TEST_SETTINGS: Chlamydomonas reinhardtii TAG, Nile Red fluorescence, 72 h; screened at 10 µM (by protocol)
The whole screen tested about 44,000 compounds, of which about 370 (0.84%) were called active. The sample as a whole holds a higher share of actives than the screen did.
VALUE_TYPE: outcome

INSERT INTO measurements (compound, result) VALUES
  ('COc1ccc(Nc2nc(Nc3ccc(OC)cc3)nc(N3CCNCC3)n2)cc1', 'inactive'),
  ('Cc1cccc(NC(=O)c2ccc(Cl)c(Cl)c2)c1C', 'inactive'),
  ('Cc1cccc(C)c1OCC(=O)Nc1ccc([N+](=O)[O-])cc1', 'inactive'),
  ('CC(=O)N1CCN(Cc2c(Cl)cccc2Cl)CC1', 'inactive'),
  ('CC1CCCN(CCCCOc2ccccc2F)C1 (stereo not given)', 'inactive'),
  ('O=C(Nc1ccc([N+](=O)[O-])cc1Br)c1ccncc1', 'inactive'),
  ('O=C(COc1ccc(Cl)cc1)Nc1ccc(F)c(F)c1', 'inactive'),
  ('CCOc1ccc(C(=O)NCCc2ccc(F)cc2)cc1', 'inactive'),
  ('CCCC(=O)Nc1cccc(NC(=O)COc2ccc(C)c(C)c2)c1', 'inactive'),
  ('COc1ccccc1N1CCN(S(=O)(=O)c2cccc3cccnc23)CC1', 'inactive'),
  ('O=C(Cc1ccc(F)cc1)NCc1ccncc1', 'inactive'),
  ('COc1ccc(C(O)=C2C(=O)C(=O)N(CCN3CCOCC3)C2c2ccncc2)cc1C (stereo not given)', 'inactive'),
  ('COc1ccc(-c2cc(C(=O)Nc3cccnc3)c3ccccc3n2)cc1', 'inactive'),
  ('Clc1ccc(-n2nnnc2SCc2nn[nH]n2)cc1', 'inactive'),
  ('COC(=O)NC(c1ccc(Br)cc1)C(Cl)(Cl)Cl (stereo not given)', 'inactive'),
  ('OCCN(Cc1ccccc1)Cc1ccc(-c2ccccc2)cc1', 'inactive'),
  ('CC1(C)Cc2ccccc2/C(=C(\C#N)C(=O)Nc2cccc([N+](=O)[O-])c2)N1', 'inactive'),
  ('CC(C)c1ccc(OCC(=O)N2CCCC2)cc1', 'inactive'),
  ('O=C(Nc1ccccc1F)C1CC(=O)N(c2ccccc2F)C1 (stereo not given)', 'inactive'),
  ('NCCNc1ccc([N+](=O)[O-])c(N2CCCCC2)c1', 'inactive'),
  ('COc1ccc(CC(=O)NC(c2ccccc2)c2ccccc2)cc1OC', 'inactive'),
  ('CC(=O)c1ccc(-c2ccc(C=O)o2)cc1', 'inactive'),
  ('Cc1ccc2c(Cl)c(C(=O)Nc3cc(S(N)(=O)=O)ccc3C)sc2c1', 'inactive'),
  ('COc1cc(/C=C(\C#N)c2nc3ccc(C)cc3[nH]2)c(Br)cc1O', 'inactive'),
  ('C=CCNC(=O)COc1ccc(C)cc1Br', 'inactive'),
  ('O=C(O)Cn1c2ccccc2c2cc([N+](=O)[O-])ccc21', 'inactive'),
  ('NC(=O)c1cc(NC(=O)CCC(=O)O)ccc1N1CCOCC1', 'inactive'),
  ('COc1ccc(-c2cn3c4ccccc4n(CCN4CCOCC4)c3n2)cc1', 'inactive'),
  ('O=C(NCc1cccnc1)C(CCO)Sc1nc2sc3c(c2c(=O)[nH]1)CCCC3 (stereo not given)', 'inactive'),
  ('O=C(c1cccc([N+](=O)[O-])c1)c1ccc2c(c1)C(=O)N(c1nccs1)C2=O', 'inactive'),
  ('O=C(NCc1ccncc1)C(=O)NCc1ccco1', 'inactive'),
  ('CCOc1ccccc1NC(=O)COc1ccc(Br)c(C)c1', 'inactive'),
  ('Cc1cc(N/C=C/C(=O)c2cccs2)no1', 'inactive'),
  ('CS(=O)(=O)N(CC(=O)N1CCCCCC1)c1cccc(Cl)c1Cl', 'inactive');
